Collected set of log10 IC50 measured with Fatty-acid amide hydrolase 1 (Rattus norvegicus, UniProt P97612) across studies.
MEASURE: log10 IC50 (log10 of the value in nM)

>  <COMPOUND>
O=C(CCCC1CCN(Cc2ccc3cccnc3n2)CC1)c1ncco1

>  <EXPERIMENTAL SYSTEM>
Fatty-acid amide hydrolase 1 (Rattus norvegicus, UniProt P97612)

>  <MEASURE>
log10 IC50

>  <MEASURED VALUE>
3.85

$$$$
>  <COMPOUND>
O=C(Nc1ccccc1)N1CCN(c2nc(N3CCCC3)ns2)CC1

>  <EXPERIMENTAL SYSTEM>
Fatty-acid amide hydrolase 1 (Rattus norvegicus, UniProt P97612)

>  <MEASURE>
log10 IC50

>  <MEASURED VALUE>
3.70

$$$$
>  <COMPOUND>
O=C(CCCC1CCN(S(=O)(=O)c2ccc(Cl)cc2)CC1)c1ncco1

>  <EXPERIMENTAL SYSTEM>
Fatty-acid amide hydrolase 1 (Rattus norvegicus, UniProt P97612)

>  <MEASURE>
log10 IC50

>  <MEASURED VALUE>
1.53

$$$$
>  <COMPOUND>
O=C(CCCC1CCN(Cc2ccc(-c3ccccc3)cc2)CC1)c1ncco1

>  <EXPERIMENTAL SYSTEM>
Fatty-acid amide hydrolase 1 (Rattus norvegicus, UniProt P97612)

>  <MEASURE>
log10 IC50

>  <MEASURED VALUE>
1.65

$$$$
>  <COMPOUND>
O=C(Nc1cccnc1)N1CCCC(Cc2cccc(Oc3ccc(Cl)cc3)c2)C1 (single isomer, unassigned; (+))

>  <EXPERIMENTAL SYSTEM>
Fatty-acid amide hydrolase 1 (Rattus norvegicus, UniProt P97612)

>  <MEASURE>
log10 IC50

>  <MEASURED VALUE>
1.49

$$$$
>  <COMPOUND>
O=C(CCCC1CCN(Cc2ccnc3ccccc23)CC1)c1ncco1

>  <EXPERIMENTAL SYSTEM>
Fatty-acid amide hydrolase 1 (Rattus norvegicus, UniProt P97612)

>  <MEASURE>
log10 IC50

>  <MEASURED VALUE>
2.97

$$$$
>  <COMPOUND>
O=C(CCCC1CCN(Cc2ccc(N3CCOCC3)nc2)CC1)c1ncco1

>  <EXPERIMENTAL SYSTEM>
Fatty-acid amide hydrolase 1 (Rattus norvegicus, UniProt P97612)

>  <MEASURE>
log10 IC50

>  <MEASURED VALUE>
3.30

$$$$
>  <COMPOUND>
Cc1ccc(S(=O)(=O)N2CCC(CCCC(=O)c3ncco3)CC2)cc1

>  <EXPERIMENTAL SYSTEM>
Fatty-acid amide hydrolase 1 (Rattus norvegicus, UniProt P97612)

>  <MEASURE>
log10 IC50

>  <MEASURED VALUE>
1.11

$$$$
>  <COMPOUND>
O=C(CCCC1CCN(Cc2ccc(OC3CCCCC3)cc2)CC1)c1ncco1

>  <EXPERIMENTAL SYSTEM>
Fatty-acid amide hydrolase 1 (Rattus norvegicus, UniProt P97612)

>  <MEASURE>
log10 IC50

>  <MEASURED VALUE>
2.08

$$$$
>  <COMPOUND>
NC(=O)c1ccc(-c2cnc(C(=O)CCc3ccc(-c4ccccc4)cc3)o2)nc1

>  <EXPERIMENTAL SYSTEM>
Fatty-acid amide hydrolase 1 (Rattus norvegicus, UniProt P97612)

>  <MEASURE>
log10 IC50

>  <MEASURED VALUE>
-0.30

$$$$
>  <COMPOUND>
O=C(CCCC1CCN(C(=O)CC2CCCC2)CC1)c1ncco1

>  <EXPERIMENTAL SYSTEM>
Fatty-acid amide hydrolase 1 (Rattus norvegicus, UniProt P97612)

>  <MEASURE>
log10 IC50

>  <MEASURED VALUE>
2.33

$$$$
>  <COMPOUND>
O=C(O)c1ccc(-c2cnc(C(=O)CCc3ccc(COc4ccccc4)cc3)o2)nc1

>  <EXPERIMENTAL SYSTEM>
Fatty-acid amide hydrolase 1 (Rattus norvegicus, UniProt P97612)

>  <MEASURE>
log10 IC50

>  <MEASURED VALUE>
0.40

$$$$
>  <COMPOUND>
Cc1ccc(CC(=O)N2CCC(CCCC(=O)c3ncco3)CC2)cc1

>  <EXPERIMENTAL SYSTEM>
Fatty-acid amide hydrolase 1 (Rattus norvegicus, UniProt P97612)

>  <MEASURE>
log10 IC50

>  <MEASURED VALUE>
2.00

$$$$
>  <COMPOUND>
CC(C)CCC(=O)N1CCC(CCCC(=O)c2ncco2)CC1

>  <EXPERIMENTAL SYSTEM>
Fatty-acid amide hydrolase 1 (Rattus norvegicus, UniProt P97612)

>  <MEASURE>
log10 IC50

>  <MEASURED VALUE>
2.80

$$$$
>  <COMPOUND>
O=C(Nc1ccccc1)N1CCN(c2nc(-c3cccs3)ns2)CC1

>  <EXPERIMENTAL SYSTEM>
Fatty-acid amide hydrolase 1 (Rattus norvegicus, UniProt P97612)

>  <MEASURE>
log10 IC50

>  <MEASURED VALUE>
2.48

$$$$
